Conditions: in n-hexane, 278.15 K
measured parameter: solubility (mole fraction)
Answer as a number with no unit attached.

Which solubility (mole fraction) value is on record for Cc1c([N+](=O)[O-])c(C)c([N+](=O)[O-])c(C(C)(C)C)c1[N+](=O)[O-] ? 0.00225

---

Settings: in isopropanol, 308.15 K
measured parameter: solubility (mole fraction)
Answer as a number with no unit attached.

Which solubility (mole fraction) value is on record for Cc1c([N+](=O)[O-])c(C)c([N+](=O)[O-])c(C(C)(C)C)c1[N+](=O)[O-] ? 0.00557

---

Details: in methanol, 298.15 K
measured parameter: solubility (mole fraction)
Answer as a number with no unit attached.

Which solubility (mole fraction) value is on record for Cc1c([N+](=O)[O-])c(C)c([N+](=O)[O-])c(C(C)(C)C)c1[N+](=O)[O-] ? 0.00459
